biological target: alpha-mannosidase (Canavalia ensiformis); assay: Inhibition of jack bean alpha-mannosidase using p-nitrophenyl-alpha-D-mannopyranoside substrate incubated for 10 mins by UV spectrophotometry
pIC50: −log10 of the molar value.

# MOLECULE, MEASUREMENT TARGET, pIC50
measured = [
    ("OCCC1(O)[C@H](O)CNC[C@@H]1O (some centres undefined)", "alpha-mannosidase (Canavalia ensiformis)", 2.74),
    ("OCCN1C[C@@H](O)C(O)(CCO)[C@@H](O)C1 (some centres undefined)", "alpha-mannosidase (Canavalia ensiformis)", 3.06),
    ("CCCCCCN1C[C@@H](O)C(O)(CCO)[C@@H](O)C1 (some centres undefined)", "alpha-mannosidase (Canavalia ensiformis)", 3.74),
    ("CCCCN1C[C@@H](O)C(O)(CCO)[C@@H](O)C1 (some centres undefined)", "alpha-mannosidase (Canavalia ensiformis)", 3.60),
]

* * *

test: Inhibition of alpha-glucosidase (unknown origin) using p-nitrophenyl-alpha-D-glucopyranoside substrate incubated for 10 mins by UV spectrophotometry; details: read-out: IC50
pIC50: −log10 of the molar value.

# MOLECULE, pIC50
measured = [
    ("CCCCN1C[C@@H](O)C(O)(CCO)[C@@H](O)C1 (some centres undefined)", 3.44),
    ("OCCN1C[C@@H](O)C(O)(CCO)[C@@H](O)C1 (some centres undefined)", 3.60),
    ("OCCN1C[C@H](O)[C@@H](O)[C@H](O)[C@H]1CO", 3.77),
    ("OCCC1(O)[C@H](O)CNC[C@@H]1O (some centres undefined)", 3.38),
]

* * *

assay: Inhibition of alpha-galactosidase (unknown origin) using p-nitrophenyl-alpha-D-galactopyranoside substrate incubated for 10 mins by UV spectrophotometry; conditions: read-out: IC50

# MOLECULE, IC50 / µM
rows = [
    ("CCCCN1C[C@@H](O)C(O)(CCO)[C@@H](O)C1 (stereo partly drawn)", 167),
    ("CCCCCCN1C[C@@H](O)C(O)(CCO)[C@@H](O)C1 (stereo partly drawn)", 315),
    ("OCCN1C[C@H](O)[C@@H](O)[C@H](O)[C@H]1CO", 1850),
]

Data provenance: ChEMBL document CHEMBL3351657
